# TEST_DETAILS: Bioavailability in monkey at 3 mg/kg, po
# TEST_CONTEXT: rhesus monkey, in vivo
Task for the reader: assign each of the following compounds its reported bioavailability.
# output: bare number, implied unit %

Param item = CC(C)(C)NC(=O)N[C@H](C(=O)N1C[C@H]2[C@@H]([C@H]1C(=O)NC(CC1CCC1)C(=O)C(N)=O)C2(C)C)C(C)(C)C (some centres not stated) ; retrieve measured bioavailability.
4

Param item = CC(C)(C)OC(=O)N[C@H](C(=O)N1C[C@H]2[C@@H]([C@H]1C(=O)NC(CC1CCC1)C(=O)C(N)=O)C2(C)C)C1CCCCC1 (some centres not stated) ; retrieve measured bioavailability.
1
